Values compiled from ChEMBL document CHEMBL1148478.

- Test system: IGROV-1
- Experiment Summary: In vitro antiproliferative activity against human IGROV ovarian cell line
- Format: functional
Measured Quantity: log10 of GI50 (log10 of the value in nM)
// units: nM (pre-log); metric: GI50; scale: log10

Examples with answers:
> print(dat)
                    structure.smiles.string  reading
1  c1ccc(-c2n[n+]3ccccc3c3ccc4ccccc4c23)cc1     2.00
2  CCOc1ccc(-c2n[n+]3ccccc3c3ccc4ccccc4c23)cc1     3.58
3  CCOc1ccc(-c2n[n+]3c4ccc(C)cc4ccc3c3ccc4ccccc4c23)cc1     2.60
4  Cc1ccc2c(ccc3c4ccc5ccccc5c4c(-c4ccccc4)n[n+]23)c1     2.70
5  COc1cccc2c1C(=O)c1c(O)c3c(c(O)c1C2=O)C[C@@](O)(C(=O)CO)C[C@@H]3O[C@H]1C[C@H](N)[C@H](O)[C@H](C)O1     3.64

Incoming: I am curious: what log10 of GI50 value has been reported for Cc1cc[n+]2nc(-c3ccccc3)c3c4ccccc4ccc3c2c1 ?
Outgoing: 3.81

###

- Test system: LoVo
- Experiment Summary: In vitro antiproliferative activity against human LOVO-DOX colon cell line
- Assay type: functional
Decision: GI50 beneath 5 µM gives 1.0; GI50 meeting or exceeding 5 µM gives 0.0.

Example cases with answers are listed next.
> print(dat)
                    structure.smiles.string  measured.on  answer.label
1  Cc1ccc2c(ccc3c4ccc5ccccc5c4c(-c4ccccc4)n[n+]23)c1         LoVo           1.0
2  CCOc1ccc(-c2n[n+]3ccccc3c3ccc4ccccc4c23)cc1         LoVo           0.0
3  c1ccc(-c2n[n+]3c4ccccc4ccc3c3ccc4ccccc4c23)cc1         LoVo           1.0

Incoming: Strictly below 5 µM in GI50? CCOc1ccc(-c2n[n+]3c(C)cccc3c3ccc4ccccc4c23)cc1
Outgoing: 0.0

Incoming: Strictly below 5 µM in GI50? Cc1cccc2c3ccc4ccccc4c3c(-c3ccccc3)n[n+]12
Outgoing: 0.0

Incoming: Strictly below 5 µM in GI50? COc1cccc2c1C(=O)c1c(O)c3c(c(O)c1C2=O)C[C@@](O)(C(=O)CO)C[C@@H]3O[C@H]1C[C@H](N)[C@H](O)[C@H](C)O1
Outgoing: 1.0

###

Reported GI50 is given for each of the following compounds.
- Test system: PANC-1
- Experiment Summary: In vitro antiproliferative activity against human PANC-1 pancreas cell line
- Assay type: functional
Please state the figure in nM; there is no need to write the unit.

Examples with answers:
> print(dat)
                    structure.smiles.string  units.text  reading
1  c1ccc(-c2n[n+]3c4ccccc4ccc3c3ccc4ccccc4c23)cc1          nM     1300
2  COc1cccc2c1C(=O)c1c(O)c3c(c(O)c1C2=O)C[C@@](O)(C(=O)CO)C[C@@H]3O[C@H]1C[C@H](N)[C@H](O)[C@H](C)O1          nM     3500
3  Cc1ccc2c(ccc3c4ccc5ccccc5c4c(-c4ccccc4)n[n+]23)c1          nM      700
4  CCOc1ccc(-c2n[n+]3c4ccc(C)cc4ccc3c3ccc4ccccc4c23)cc1          nM      400
5  CCOc1ccc(-c2n[n+]3ccccc3c3ccc4ccccc4c23)cc1          nM     2100

Incoming: I am curious: what GI50 value has been reported for Cc1cccc2c3ccc4ccccc4c3c(-c3ccccc3)n[n+]12 ?
Outgoing: 3400

Incoming: I am curious: what GI50 value has been reported for CCOc1ccc(-c2n[n+]3c4ccccc4ccc3c3ccc4ccccc4c23)cc1 ?
Outgoing: 4900

Incoming: I am curious: what GI50 value has been reported for CCOc1ccc(-c2n[n+]3c(C)cccc3c3ccc4ccccc4c23)cc1 ?
Outgoing: 1000

###

- Tested on: LNCaP
- Experiment Summary: In vitro antiproliferative activity against human LN-caP prostate cell line
- Format: functional
Measured Quantity: GI50 (nM)
Please state the figure in nM; there is no need to write the unit.

> print(dat)
                    structure.smiles.string  measured.on  units.text  reading
1  CCOc1ccc(-c2n[n+]3c4ccc(C)cc4ccc3c3ccc4ccccc4c23)cc1        LNCaP          nM       70
2  Cc1cccc2c3ccc4ccccc4c3c(-c3ccccc3)n[n+]12        LNCaP          nM      400
3  c1ccc(-c2n[n+]3ccccc3c3ccc4ccccc4c23)cc1        LNCaP          nM     5200
4  Cc1ccc2c(ccc3c4ccc5ccccc5c4c(-c4ccccc4)n[n+]23)c1        LNCaP          nM      200
5  CCOc1ccc(-c2n[n+]3c4ccccc4ccc3c3ccc4ccccc4c23)cc1        LNCaP          nM     2600

Incoming: I am curious: what GI50 value has been reported for c1ccc(-c2n[n+]3c4ccccc4ccc3c3ccc4ccccc4c23)cc1 ?
Outgoing: 300

Incoming: I am curious: what GI50 value has been reported for CCOc1ccc(-c2n[n+]3c(C)cccc3c3ccc4ccccc4c23)cc1 ?
Outgoing: 400

###

- System: SK-MEL-28
- Experiment Summary: In vitro antiproliferative activity against human MEL-28 melanoma cell line
- Format: functional
Measured Quantity: GI50 (nM)
Please state the figure in nM; there is no need to write the unit.

> print(dat)
                    structure.smiles.string  measured.quantity  reading
1  Cc1ccc2c(ccc3c4ccc5ccccc5c4c(-c4ccccc4)n[n+]23)c1               GI50      500

Incoming: I am curious: what GI50 value has been reported for c1ccc(-c2n[n+]3c4ccccc4ccc3c3ccc4ccccc4c23)cc1 ?
Outgoing: 1000

Incoming: I am curious: what GI50 value has been reported for Cc1cc[n+]2nc(-c3ccccc3)c3c4ccccc4ccc3c2c1 ?
Outgoing: 8400

Incoming: I am curious: what GI50 value has been reported for CCOc1ccc(-c2n[n+]3ccccc3c3ccc4ccccc4c23)cc1 ?
Outgoing: 2600

Incoming: I am curious: what GI50 value has been reported for COc1cccc2c1C(=O)c1c(O)c3c(c(O)c1C2=O)C[C@@](O)(C(=O)CO)C[C@@H]3O[C@H]1C[C@H](N)[C@H](O)[C@H](C)O1 ?
Outgoing: 3100

Incoming: I am curious: what GI50 value has been reported for Cc1cccc2c3ccc4ccccc4c3c(-c3ccccc3)n[n+]12 ?
Outgoing: 2500

Incoming: I am curious: what GI50 value has been reported for CCOc1ccc(-c2n[n+]3c4ccc(C)cc4ccc3c3ccc4ccccc4c23)cc1 ?
Outgoing: 400

Incoming: I am curious: what GI50 value has been reported for CCOc1ccc(-c2n[n+]3c(C)cccc3c3ccc4ccccc4c23)cc1 ?
Outgoing: 1200

Incoming: I am curious: what GI50 value has been reported for CCOc1ccc(-c2n[n+]3c4ccccc4ccc3c3ccc4ccccc4c23)cc1 ?
Outgoing: 5300

###

- Test system: HT-29
- Experiment Summary: In vitro antiproliferative activity against human HT-29 colon cell line
- Type: functional
Measured Quantity: GI50 (µM)
Please state the figure in µM; there is no need to write the unit.

Incoming: I am curious: what GI50 value has been reported for Cc1cccc2c3ccc4ccccc4c3c(-c3ccccc3)n[n+]12 ?
Outgoing: 1.2

Incoming: I am curious: what GI50 value has been reported for Cc1ccc2c(ccc3c4ccc5ccccc5c4c(-c4ccccc4)n[n+]23)c1 ?
Outgoing: 0.4

Incoming: I am curious: what GI50 value has been reported for CCOc1ccc(-c2n[n+]3c(C)cccc3c3ccc4ccccc4c23)cc1 ?
Outgoing: 0.6

Incoming: I am curious: what GI50 value has been reported for CCOc1ccc(-c2n[n+]3c4ccc(C)cc4ccc3c3ccc4ccccc4c23)cc1 ?
Outgoing: 0.2

###

- System: HeLa
- Experiment Summary: In vitro antiproliferative activity against human HeLa cervix cell line
- Assay type: functional
Decision: GI50 beneath 500 nM gives satisfied; GI50 meeting or exceeding 500 nM gives not satisfied.

> print(dat)
                                   compound   answer.label
1  CCOc1ccc(-c2n[n+]3c(C)cccc3c3ccc4ccccc4c23)cc1  not satisfied

Incoming: Strictly below 500 nM in GI50? Cc1cccc2c3ccc4ccccc4c3c(-c3ccccc3)n[n+]12
Outgoing: not satisfied

Incoming: Strictly below 500 nM in GI50? COc1cccc2c1C(=O)c1c(O)c3c(c(O)c1C2=O)C[C@@](O)(C(=O)CO)C[C@@H]3O[C@H]1C[C@H](N)[C@H](O)[C@H](C)O1 [DOXORUBICIN]
Outgoing: satisfied

Incoming: Strictly below 500 nM in GI50? CCOc1ccc(-c2n[n+]3c4ccccc4ccc3c3ccc4ccccc4c23)cc1
Outgoing: not satisfied

Incoming: Strictly below 500 nM in GI50? c1ccc(-c2n[n+]3c4ccccc4ccc3c3ccc4ccccc4c23)cc1
Outgoing: not satisfied

Incoming: Strictly below 500 nM in GI50? CCOc1ccc(-c2n[n+]3c4ccc(C)cc4ccc3c3ccc4ccccc4c23)cc1
Outgoing: satisfied

Incoming: Strictly below 500 nM in GI50? CCOc1ccc(-c2n[n+]3ccccc3c3ccc4ccccc4c23)cc1
Outgoing: not satisfied
